tested on: A549/ATCC; assay: SRB anticancer assay, non-small lung; format: cell-based, human; details: Homo sapiens, 48 h
measure: GI50 (µM)
Numbers only, in µM.

Count: 5. Required value per item: GI50.
1. COc1cc(OC)c2sc(-c3ccc(-n4cncc4-c4ccc(OC)c(OC)c4)cc3)nc2c1
2. COc1cc2nc(-c3ccc(-n4cncc4-c4ccc(N)cc4)cc3)sc2c(OC)c1OC
3. COc1cc(OC)c2sc(-c3ccc(-n4cncc4-c4cc(OC)c(OC)c(OC)c4)cc3)nc2c1
4. COc1ccc(-c2cncn2-c2ccc(-c3nc4cc(OC)c(OC)c(OC)c4s3)cc2)cc1N
5. COc1cc(OC)cc(-c2cncn2-c2ccc(-c3nc4cc(OC)c(OC)c(OC)c4s3)cc2)c1

Reply:
41.8
3.14
6.16
5.77
5.59

Query: GET /values?readout=GI50&system=A549/ATCC&item= COc1cc(-c2cncn2-c2ccc(-c3nc4ccc(F)cc4s3)cc2)ccc1F
Reply: 12.3
